system: feline FcRn complex (FcRn-α subunit and β-microglobulin), biotin labeled (feline)
assay.info: SPR, pH 6
property.measured: Kd

Enquiry: Field request: Kd | item: feline IgG1a S434N (antibody, part only; not given: Variable domains, not shown: another chain or arm of the molecule) constant: ASTTAPSVFPLAPSCGTTSGATVALACLVLGYFPEPVTVSWNSGALTSGVHTFPAVLQASGLYSLSSMVTVPSSRWLSDTFTCNVAHPPSNTKVDKTVRKTDHPPGPKPCDCPKCPPPEMLGGPSIFIFPPKPKDTLSISRTPEVTCLVVDLGPDDSDVQITWFVDNTQVYTAKTSPREEQFNSTYRVVSVLPILHQDWLKGKEFKCKVNSKSLPSPIERTISKAKGQPHEPQVYVLPPAQEELSRNKVSVTCLIKSFHPPDIAVEWEITGQPEPENNYRTTPPQLDSDGTYFVYSKLSVDRSHWQRGNTYTCSVSHEALHNHHTQKSLTQSPGK
Return: 6.94 nM

meta.source: patent US20240400708A1
